- EXPERIMENTAL_PROTOCOL: Cmax in lean C57BL/6J mouse at 100 umol/kg, po dosed daily for 7 days by HPLC-MS analysis
- Assay type: ADME, organism-based
- Parameters: route oral, dose 100 µmol/kg, time 7 day
- CONDITIONS_USED: in vivo
RESULT_TYPE: Cmax

Consider the molecule shown here: `O=C(O)c1nn(Cc2ccc(Cl)c(Cl)c2)c(=O)c2cc(Oc3ccccc3)ccc12` What is its recorded Cmax? 167 µM

---

- EXPERIMENTAL_PROTOCOL: Oral bioavailability in lean C57BL/6J mouse at 100 umol/kg dosed daily for 7 days by HPLC-MS analysis
- Type: ADME, organism-based
- CONDITIONS_USED: in vivo, at 100 µmol/kg, time 7 day
RESULT_TYPE: bioavailability (%)
The figure you give is taken to be in %; do not add the unit.

Consider the molecule shown here: `O=C(O)c1nn(Cc2ccc(Cl)c(Cl)c2)c(=O)c2cc(Oc3ccccc3)ccc12` What is its recorded bioavailability? 109

---

- EXPERIMENTAL_PROTOCOL: Metabolic stability in mouse Hepatocyte assessed as intrinsic clearance in 1 million cells/mL by LC-MS/MS analysis
- Type: ADME, cell-based
- CONDITIONS_USED: hepatocytes, read-out: CLH
RESULT_TYPE: hepatocyte CLint (µL/min/1e6 cells)
The figure you give is taken to be in µL/min/1e6 cells; do not add the unit.

Consider the compound shown here: `O=C(O)c1nn(Cc2ccc(Cl)c(Cl)c2)c(=O)c2cc(Oc3ccccc3)ccc12` What is its recorded hepatocyte CLint? 10

---

- EXPERIMENTAL_PROTOCOL: Lipophilicity, logD of compound at pH 7.4 by shake flask assay based LC-MS/MS analysis
- Type: physicochemical
- CONDITIONS_USED: buffer
RESULT_TYPE: logD
Could you respond with only the numeric value?

Consider the compound shown here: `O=C(O)c1nn(Cc2ccc(Cl)c(Cl)c2)c(=O)c2cc(Oc3ccccc3)ccc12` What is its recorded logD? 2.3

---

- EXPERIMENTAL_PROTOCOL: Aqueous solubility of the compound by LC-MS/MS analysis
- Assay type: physicochemical
- CONDITIONS_USED: buffer
RESULT_TYPE: solubility (µM)
The figure you give is taken to be in µM; do not add the unit.

Consider the molecule shown here: `O=C(O)c1nn(Cc2ccc(Cl)c(Cl)c2)c(=O)c2cc(Oc3ccccc3)ccc12` What is its recorded solubility? 324

---

- EXPERIMENTAL_PROTOCOL: Half life in lean C57BL/6J mouse at 100 umol/kg, po dosed daily for 7 days by HPLC-MS analysis
- Format: ADME, organism-based
- CONDITIONS_USED: in vivo, dose 100 µmol/kg, time 7 day
RESULT_TYPE: half-life (h)
The figure you give is taken to be in h; do not add the unit.

Consider the molecule shown here: `O=C(O)c1nn(Cc2ccc(Cl)c(Cl)c2)c(=O)c2cc(Oc3ccccc3)ccc12` What is its recorded half-life? 5

---

- EXPERIMENTAL_PROTOCOL: Apparent permeability in human Caco-2 cells at 10 uM incubated for 45 to 120 mins by LC-MS/MS analysis
- Assay type: ADME, cell-based
- CONDITIONS_USED: time 45-120 min, read-out: permeability
RESULT_TYPE: Papp at 10 µM (×10⁻⁶ cm/s)
The figure you give is taken to be in ×10⁻⁶ cm/s; do not add the unit.

Consider the compound shown here: `O=C(O)c1nn(Cc2ccc(Cl)c(Cl)c2)c(=O)c2cc(Oc3ccccc3)ccc12` What is its recorded Papp at 10 µM? 13
